experimental-target: T1, canine OX40L, full length membrane form, expressed on HEK293 cells (canine)
T1 chain: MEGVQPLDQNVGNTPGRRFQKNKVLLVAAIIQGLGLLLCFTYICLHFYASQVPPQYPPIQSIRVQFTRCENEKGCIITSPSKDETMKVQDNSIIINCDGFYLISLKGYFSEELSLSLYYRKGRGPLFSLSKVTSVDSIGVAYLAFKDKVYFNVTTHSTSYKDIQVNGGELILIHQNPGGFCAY
measurement-notes: cell-based or functional assay
readout-kind: % Signal Inhibition Rep2
Please don't drop the unit; write it after the number.

binder	readout-kind	measured-result
PMX082 (antibody, V domains shown, also called PMX82) VH: EVQLVESGGDLVKPGGSLRLSCVASGFTFSSHHMTWVRQAPGKGLQWVAYIVSGGTNTNYADAVKGRFTISRDNAKNTLYLQMNSLRAEDTAVYYCASDLVLAVGAPFYWGQGTLVTVSS VL: SYELTQPPSVNVTLRETAHITCGGDSIGRKYVQWIQQNPGQAPVVIIYKDINRPTGIPERFSGANSGNTATLTISGALAEDEADYYCQVGDSGTKAVFGEGTQLTVL	% Signal Inhibition Rep2	71.9%
PMX047 (antibody, V domains shown, also called PMX47) VH: EVQLVESGGDLVKPGGSLRLSCVASGFIFSSYSMSWVRQAPEKGLQLVAGINSAGSSTYYTDAVKGRFTISRDNAKNTVYLQMNSLRAEDTAIYYCAKRWVFDFWGQGTLVTVSS VL: HIVMTQTPLSLSVSPGEPASISCKASQSLLLSYGNTYLYWFRQKPGQSPQRLIYKVSNRDPGVPDRFSGSGSGTDFTLRISRVEADDAGVYYCGQGIQDPFTFGQGTKLEIK	% Signal Inhibition Rep2	73.1%

% Signal Inhibition Rep2 reading for PMX155 (antibody, V domains shown) VH: ELHLVESGGDLVKPAGSLRLSCVASGFTFSSFRMSWVRQSPGKGLQFVAGINSDGYNTQYRDDVKGRFTISRDNTEKTLYLQMNNLRVEDTAMYYCVKDQGSWGGNFDFWGQGTLVTVSS VL: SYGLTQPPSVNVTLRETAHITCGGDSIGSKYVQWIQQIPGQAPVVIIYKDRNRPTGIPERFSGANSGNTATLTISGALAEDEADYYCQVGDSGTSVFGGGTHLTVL : 37.4%
